- Test system: RAW-Dual
- MEASUREMENT PROTOCOL: NF-kB SEAP reporter activity, fold change vs agonist alone; cytotoxicity flag (confluency mask): cytotoxic (confluency <70% of control); higher = enhanced NF-kB activity
- CONDITION SUMMARY: agonist: LPS (TLR4) 0.1 ug/mL
In all, about 2,900 compounds were measured (“NF-kB SEAP reporter activity, fold change vs agonist alone”: median about 0.99, highest 2% from about 2.6 on). The sample holds the highest values, similar compounds and a random draw of the others, so the mix is not that of the screen.
OBSERVED PROPERTY: NF-kB SEAP reporter activity

COMPOUND: Cn1cc(-c2ccc(S(=O)(=O)n3ccc(/C=C/C(=O)Nc4ccccc4N)c3)cc2)cn1 (library stock concentration (final ~1000-fold dilution): 10 mM)
OBS VALUE: 4.11
//
COMPOUND: CS(=O)(=O)O.O=C(Nc1cccc(Cl)c1)Nc1ncc(CCNc2ncnc3ccsc23)s1 (library stock concentration (final ~1000-fold dilution): 10 mM)
OBS VALUE: 1
//
COMPOUND: COc1cc2ncnc(Nc3cccc(Cl)c3)c2cc1OC (library stock concentration (final ~1000-fold dilution): 10 mM)
OBS VALUE: 1.59
//
COMPOUND: C#Cc1cccc(Nc2ncnc3cc(OC)c(OCCCCCCC(=O)NO)cc23)c1 (library stock concentration (final ~1000-fold dilution): 10 mM)
OBS VALUE: 7.09
//
COMPOUND: COc1ccc(N2C(=O)/C(=C/c3ccc([N+](=O)[O-])s3)SC2=S)cc1 (library stock concentration (final ~1000-fold dilution): 10 mM)
OBS VALUE: 0.439

Attention now turns to another entry.
// lookup NF-kB SEAP reporter activity for Cc1cc(C)cc(C(=O)NOCCCCCC(=O)NO)c1 (library stock concentration (final ~1000-fold dilution): 10 mM) 5.28

###

- System: RAW-Dual
- MEASUREMENT PROTOCOL: NF-kB SEAP reporter activity, fold change vs agonist alone; cytotoxicity flag (confluency mask): not cytotoxic; higher = enhanced NF-kB activity
- CONDITION SUMMARY: agonist: Pam2CSK4 (TLR2/6) 0.1 ug/mL
Over roughly 2,900 compounds, “NF-kB SEAP reporter activity, fold change vs agonist alone” has its median near 0.99; the highest 2% begin near 2.6. Shown is part of a subset that was picked to be rich in the highest values.
Values of NF-kB SEAP reporter activity greater than or equal to 1 map to Yes; values below map to No.

Reference set, count: 5
COMPOUND: CNC(=O)C(Cc1c[nH]c2ccccc12)NC(=O)C(CC(=O)NO)CC(C)C (stereo unspecified) (library stock concentration (final ~1000-fold dilution): 10 mM)
CATEGORY LABEL: Yes
//
COMPOUND: CCCCNNC(=O)c1ccc(Br)cc1 (library stock concentration (final ~1000-fold dilution): 10 mM)
CATEGORY LABEL: No
//
COMPOUND: O=c1oc2cc(O)ccc2c2ccc(O)cc12 (library stock concentration (final ~1000-fold dilution): 10 mM)
CATEGORY LABEL: No
//
COMPOUND: CCCCNc1ccc(C(=O)OCCN(C)C)cc1.Cl (library stock concentration (final ~1000-fold dilution): 10 mM)
CATEGORY LABEL: Yes
//
COMPOUND: O=C(CCNNC(=O)c1ccncc1)NCc1ccccc1 (library stock concentration (final ~1000-fold dilution): 10 mM)
CATEGORY LABEL: No

Would you say CC1=NN(c2ccc(C)c(C)c2)C(=O)/C1=N\Nc1cccc(-c2cccc(C(=O)O)c2)c1O.NCCO.NCCO (library stock concentration (final ~1000-fold dilution): 10 mM) shows NF-kB SEAP reporter activity at minimum 1? Yes

###

- Tested on: RAW-Dual
- MEASUREMENT PROTOCOL: NF-kB SEAP reporter activity, fold change vs agonist alone; cytotoxicity flag (confluency mask): not cytotoxic; higher = enhanced NF-kB activity
- CONDITION SUMMARY: agonist: ODN 1826 (TLR9) 0.5 ug/mL
The full ranking holds about 2,900 compounds; the median of “NF-kB SEAP reporter activity, fold change vs agonist alone” is about 0.99, and the highest 2% start at about 2.6. Many of the other results were omitted from the sample, so the highest values are more common in it than they were.
Please provide measured NF-kB SEAP reporter activity for the entries that follow.
One number for each entry.

Record excerpt, results attached:
COMPOUND: CC1OC(OC2C(CO)OC(OC3C(CO)OC(O)C(O)C3O)C(O)C2O)C(O)C(O)C1NC1C=C(CO)C(O)C(O)C1O (stereo unspecified) (library stock concentration (final ~1000-fold dilution): 10 mM)
NF-kB SEAP reporter activity: 1.03
--
COMPOUND: CCC1(O)CC2CN(CCc3c([nH]c4ccccc34)C(C(=O)OC)(c3cc4c(cc3OC)N(C=O)C3C(O)(C(=O)OC)C(OC(C)=O)C5(CC)C=CCN6CCC43C65)C2)C1.O=S(=O)(O)O (stereo unspecified) (library stock concentration (final ~1000-fold dilution): 10 mM)
NF-kB SEAP reporter activity: 3.28
--
COMPOUND: CC(C)=CCC/C(C)=C/CC/C(C)=C/CC/C=C(\C)CC/C=C(\C)CCC=C(C)C (library stock concentration (final ~1000-fold dilution): 10 mM)
NF-kB SEAP reporter activity: 1.09
--
COMPOUND: CCCCOc1cc(C(=O)NCCN(CC)CC)c2ccccc2n1.Cl (library stock concentration (final ~1000-fold dilution): 10 mM)
NF-kB SEAP reporter activity: 0.959
--
COMPOUND: O=C(c1cccc(Br)c1)N1CCC(N2CCCC2)CC1 (library stock concentration (final ~1000-fold dilution): 10 mM)
NF-kB SEAP reporter activity: 0.951
--
COMPOUND: Cc1cc(N2CCOCC2)cc2[nH]c(-c3c(NCC(O)c4cccc(Cl)c4)cc[nH]c3=O)nc12 (stereo unspecified) (library stock concentration (final ~1000-fold dilution): 10 mM)
NF-kB SEAP reporter activity: 3.16
--
COMPOUND: Cc1cc(N2CCOCC2)ccc1Nc1nc(NC2CCCCC2)c2nc[nH]c2n1 (library stock concentration (final ~1000-fold dilution): 10 mM)
NF-kB SEAP reporter activity: 0.814
--
COMPOUND: O=S(=O)(N=Cc1c(O)ccc2ccccc12)c1cccs1 (library stock concentration (final ~1000-fold dilution): 10 mM)
NF-kB SEAP reporter activity: 0.662
--
COMPOUND: O=C(/C=C/N1CC2CC1CN2c1ccccn1)c1ccccc1O (stereo unspecified) (library stock concentration (final ~1000-fold dilution): 10 mM)
NF-kB SEAP reporter activity: 0.735
--
COMPOUND: Br.COc1ccc2c3c1OC1CC(O)C=CC31CCN(C)C2 (stereo unspecified) (library stock concentration (final ~1000-fold dilution): 10 mM water)
NF-kB SEAP reporter activity: 1.02

Quick batch: NF-kB SEAP reporter activity for everything below.
1. CC(C)(OC1OC(CO)C(O)C(O)C1O)C1Cc2cc3ccc(=O)oc3cc2O1 (stereo unspecified) (library stock concentration (final ~1000-fold dilution): 10 mM)
2. O=C(N/N=C/c1c(O)ccc2ccccc12)c1ccncc1 (library stock concentration (final ~1000-fold dilution): 10 mM)

1: 1.31; 2: 2

###

Please provide measured NF-kB SEAP reporter activity for the entries that follow.
- System: RAW-Dual
- MEASUREMENT PROTOCOL: NF-kB SEAP reporter activity, fold change vs agonist alone; cytotoxicity flag (confluency mask): not cytotoxic; higher = enhanced NF-kB activity
- CONDITION SUMMARY: agonist: ODN 1826 (TLR9) 0.5 ug/mL
In all, about 2,900 compounds were measured (“NF-kB SEAP reporter activity, fold change vs agonist alone”: median about 0.99, highest 2% from about 2.6 on). The entries come from a sample that favours the highest values as a whole.
One number for each entry.

Record excerpt, results attached:
MOLECULE: N#CCC1(n2cc(-c3ncnc4[nH]ccc34)cn2)CN(C2CCN(C(=O)c3ccnc(C(F)(F)F)c3F)CC2)C1 (library stock concentration (final ~1000-fold dilution): 10 mM)
SYSTEM UNDER TEST: RAW-Dual
NF-kB SEAP reporter activity: 1.09
--
MOLECULE: O=C(O)CCc1c[nH]c2ccccc12 (library stock concentration (final ~1000-fold dilution): 10 mM)
SYSTEM UNDER TEST: RAW-Dual
NF-kB SEAP reporter activity: 1.06

// lookup NF-kB SEAP reporter activity for CNc1ccc([N+](=O)[O-])cc1-n1cnc(-c2ccc(C(F)(F)F)cc2)c1 (library stock concentration (final ~1000-fold dilution): 10 mM) 1.91

###

- System: RAW-Dual
- MEASUREMENT PROTOCOL: NF-kB SEAP reporter activity, fold change vs agonist alone; cytotoxicity flag (confluency mask): not cytotoxic; higher = enhanced NF-kB activity
- CONDITION SUMMARY: agonist: LPS (TLR4) 0.1 ug/mL
Whole data set: some 2,900 compounds, median “NF-kB SEAP reporter activity, fold change vs agonist alone” near 0.99, cut for the highest 2% near 2.6. This excerpt belongs to a sample that is enriched for the highest values.
OBSERVED PROPERTY: NF-kB SEAP reporter activity
Answers are plain numbers.

Record excerpt, results attached:
COMPOUND: COc1cc2c(cc1OC)C(=O)C(CC1CCN(Cc3ccccc3)CC1)C2.Cl (stereo not drawn) (library stock concentration (final ~1000-fold dilution): 10 mM water)
OBS VALUE: 1.35

COMPOUND: CC(=O)Oc1cc2c(cc1Cl)C(c1ccccc1C(=O)O)c1cc(Cl)c(OC(C)=O)cc1O2 (library stock concentration (final ~1000-fold dilution): 10 mM)
OBS VALUE: 1.48

// lookup NF-kB SEAP reporter activity for C[N+]1(C)CCC[C@H]1C(=O)O (library stock concentration (final ~1000-fold dilution): 10 mM) 1.08

The reported measurements were obtained from the supplement of paper PMC10037445.
